Assay: Half life of the compound in 5% Me2SO-Jensen's minimal media at 0.7 to 2 X 10^-4 M at pH 6 by spectrophotometric analysis
Format: physicochemical
reported_endpoint: half-life (h)
One number for each entry, in h.

Would you kindly share the measured half-life for Cc1oc2c([N+](=O)[O-])cccc2c1[N+](=O)[O-] ?
2.1

###

Experiment: Half life of the compound in 10% Me2SO-Jensen's minimal media at 0.7 to 2 X 10^-4 M at pH 6 by spectrophotometric analysis
Format: physicochemical
reported_endpoint: half-life (h)
Give bare numbers, in h.

Would you kindly share the measured half-life for Cc1oc2c([N+](=O)[O-])cccc2c1[N+](=O)[O-] ?
1.95

###

For each entry below, report its half-life value.
Test: Half life of the compound in 5% Me2SO-Jensen's minimal media at 0.7 to 2 X 10^-4 M at pH 7 by spectrophotometric analysis
Type: physicochemical
Answers are plain numbers, in h.

The cases that follow already have their half-life on record.
Cc1oc2c([N+](=O)[O-])cccc2c1[N+](=O)[O-] = 1.37
Cc1oc2ccccc2c1[N+](=O)[O-] = 3.34
Cc1oc2c(NC(=O)C(F)(F)F)cccc2c1[N+](=O)[O-] = 2.88

Could you tell me half-life for each of these compounds? They are listed below.
1. Cc1oc2c(C(F)(F)F)cccc2c1[N+](=O)[O-]
2. Cc1oc2ccc([N+](=O)[O-])cc2c1[N+](=O)[O-]
3. Cc1oc2c(C(N)=O)cccc2c1[N+](=O)[O-]

1. 1.48
2. 0.89
3. 1.91

###

Assay: Half life of the compound in 20% Me2SO-Jensen's minimal media at 0.7 to 2 X 10^-4 M at pH 6 by spectrophotometric analysis
Format: physicochemical
reported_endpoint: half-life (h)
Give bare numbers, in h.

Would you kindly share the measured half-life for Cc1oc2c([N+](=O)[O-])cccc2c1[N+](=O)[O-] ?
1.78

###

Assay: Half life of the compound in 40% Me2SO-Jensen's minimal media at 0.7 to 2 X 10^-4 M at pH 6 by spectrophotometric analysis
Type: physicochemical
reported_endpoint: half-life (h)
Give bare numbers, in h.

Would you kindly share the measured half-life for Cc1oc2c([N+](=O)[O-])cccc2c1[N+](=O)[O-] ?
1.51
